Experiment: label from the status in PepcDB records
QUANTITY MEASURED: protein production

[[record]]
residue_codes = "MIPLHRLCRALALLMGFGPTLSALAASAPEGLPLLGTGEGLEVRGCETLVLRGGQVVRLAEIIGPEAEGAARAQAALGALVVGHSLRLYGESPLADRYGRLHAHGVTEEGRWVQGALVEAGLARVVIREGESALSGALLALEERARRAGRGLWPPASAASPPPGALAATGDGFQVVEGRIVSAARAGRRIYLNFGADWRSDFTVSLSEAMLARLLATGRDPLAWAGRRVRVRGWVTRRNGPLLDLPHPMALEGPLDGPPFLSPKENLDLEYPGN"
quantity_measured = "protein production"
reported = "failed"

[[record]]
residue_codes = "QNNYLQSLEVQVMLDTLRVIHNPLQDYALVALMKSPMFGFDEDELARLSLQKAEDKVHENLYEKLVNAQKMASSQKGLIHTALAEKLKQFMDILASWRLYAKTHSLYDLIWKIYNDRFYYDYVGALPNGPARQANLYALALRADQFEKSNFKGLSRFIRMIDQVLEAQ"
quantity_measured = "protein production"
reported = "failed"

[[record]]
residue_codes = "MKVASGSTATAAAGPSCALKAGKTASGAGEVVRCLSEQSVAISRCAGGAGARLPALLDEQQVNVLLYDMNGCYSRLKELVPTLPQNRKVSKVEILQHVIDYIRDLQLELNSESEVGTPGGRGLPVRAPLSTLNGEISALTAEAACVPADDRILCR"
quantity_measured = "protein production"
reported = "failed"

